- target-system: HIV-integrase (recombinant integrase) (Human immunodeficiency virus type 1 group M subtype B)
- Construct: Recombinant integrase (0.26 ng) was incubated with the beads
- assay-notes: HIV-Integrase Inhibition Activity (SPA bead strand-transfer assay)
- conditions-used: recombinant integrase on biotin labeled substrate DNA/SPA beads, P33 labeled target DNA; read-out: Activity (IC50 against HIV-integrase)
observable: IC50

Request: Return value of IC50 for input Cn1c(N2CCCCS2(=O)=O)nc(C(=O)NCc2cc(F)ccc2F)c(O)c1=O , no commentary.
Response: 100 to 1000 nM

Request: Return value of IC50 for input Cn1c(N2CCCCS2(=O)=O)nc(C(=O)NCc2ccccc2Cl)c(O)c1=O , no commentary.
Response: 100 to 1000 nM

Request: Return value of IC50 for input Cn1c(N2CCCCS2(=O)=O)nc(C(=O)NCCc2ccc(Cl)cc2)c(O)c1=O , no commentary.
Response: ≥ 1000 nM

Request: Return value of IC50 for input Cn1c(N2CCC(O)CC2)nc(C(=O)NCc2ccc(F)cc2)c(O)c1=O , no commentary.
Response: 3 to 100 nM

Request: Return value of IC50 for input Cc1ncn(-c2nc(C(=O)NCc3ccc(Cl)c(Cl)c3)c(O)c(=O)n2C)n1 , no commentary.
Response: 3 to 100 nM

Request: Return value of IC50 for input Cc1cc(CNC(=O)c2nc(N3CCC(O)CC3)n(C)c(=O)c2O)ccc1F , no commentary.
Response: 3 to 100 nM

Request: Return value of IC50 for input Cn1c(N2CCCCS2(=O)=O)nc(C(=O)NCc2ccc(Cl)cc2)c(O)c1=O , no commentary.
Response: 3 to 100 nM

Request: Return value of IC50 for input Cn1c(N2CCC(C(N)=O)CC2)nc(C(=O)NCc2ccc(F)cc2)c(O)c1=O , no commentary.
Response: 3 to 100 nM

* * *

Provide the recorded IC50 for the entries that follow.
- target-system: HIV-integrase (recombinant integrase) (Human immunodeficiency virus type 1 group M subtype B)
- Construct: Recombinant integrase (0.26 ng) was incubated with the beads
- assay-notes: HIV-Integrase Inhibition Activity (SPA bead strand-transfer assay)
- conditions-used: recombinant integrase on biotin labeled substrate DNA/SPA beads, P33 labeled target DNA; read-out: Activity (IC50 against HIV-integrase)

Request: Return value of IC50 for input Cn1c(N2CCCCS2(=O)=O)nc(C(=O)NCc2ccc(Cl)cc2Cl)c(O)c1=O , no commentary.
Response: 100 to 1000 nM

Request: Return value of IC50 for input Cn1c(N2CCCCS2(=O)=O)nc(C(=O)Nc2ccc(F)cc2)c(O)c1=O , no commentary.
Response: ≥ 1000 nM

Request: Return value of IC50 for input CNC(=O)N1CCN(c2nc(C(=O)NCc3ccc(F)c(C)c3)c(O)c(=O)n2C)CC1 , no commentary.
Response: 3 to 100 nM

Request: Return value of IC50 for input Cn1c(N2CCCCS2(=O)=O)nc(C(=O)NCc2ccco2)c(O)c1=O , no commentary.
Response: 100 to 1000 nM

Request: Return value of IC50 for input Cn1c(N2CCCCS2(=O)=O)nc(C(=O)NCCc2c[nH]c3ccccc23)c(O)c1=O , no commentary.
Response: ≥ 1000 nM

Request: Return value of IC50 for input Cn1c(N2CCCCS2(=O)=O)nc(C(=O)NCc2cc(Cl)cc(Cl)c2)c(O)c1=O , no commentary.
Response: 3 to 100 nM

Request: Return value of IC50 for input Cc1ccc(CCNC(=O)c2nc(N3CCCCS3(=O)=O)n(C)c(=O)c2O)cc1 , no commentary.
Response: ≥ 1000 nM

Request: Return value of IC50 for input Cc1cc(CNC(=O)c2nc(N3CCN(c4ncccn4)CC3)n(C)c(=O)c2O)ccc1F , no commentary.
Response: 3 to 100 nM

* * *

Provide the recorded melting point for the entries that follow.

Request: Return value of melting point for input Cc1ncnn1-c1nc(C(=O)NCc2ccc(F)cc2)c(O)c(=O)n1C [Compound 61] , no commentary.
Response: 230 °C

Request: Return value of melting point for input Cn1c(N2CCOCC2)nc(C(=O)NCc2ccc(F)cc2)c(O)c1=O [Compound 52] , no commentary.
Response: 197 to 199 °C

Request: Return value of melting point for input Cc1ncn(-c2nc(C(=O)NCc3ccc(F)c(C)c3)c(O)c(=O)n2C)n1 [Compound 60] , no commentary.
Response: 204 to 205 °C

Request: Return value of melting point for input Cc1ncn(-c2nc(C(=O)NCc3ccc(Cl)c(Cl)c3)c(O)c(=O)n2C)n1 [Compound 59] , no commentary.
Response: 188 to 189 °C (dec.)

Request: Return value of melting point for input Cc1ccc(CNC(=O)c2nc(N3CCOCC3)n(C)c(=O)c2O)cc1C [Compound 57] , no commentary.
Response: 164 to 166 °C

Request: Return value of melting point for input Cn1c(N2CCOCC2)nc(C(=O)NCc2ccc(Cl)c(Cl)c2)c(O)c1=O [Compound 53] , no commentary.
Response: 100 to 102 °C

Request: Return value of melting point for input Cc1cc(CNC(=O)c2nc(N3CCOCC3)n(C)c(=O)c2O)ccc1F [Compound 54] , no commentary.
Response: 182 to 185 °C

Request: Return value of melting point for input Cn1c(N2CCCCS2(=O)=O)nc(C(=O)Nc2ccc(F)cc2)c(O)c1=O [Compound 50] , no commentary.
Response: 285 to 291 °C (dec.)

Request: Return value of melting point for input Cc1ccc(CNC(=O)c2nc(N3CCOCC3)n(C)c(=O)c2O)cc1F [Compound 55] , no commentary.
Response: 166 to 167 °C

Request: Return value of melting point for input Cn1c(N2CCOCC2)nc(C(=O)NCc2ccc(F)c(Cl)c2)c(O)c1=O [Compound 56] , no commentary.
Response: 170 to 171 °C

* * *

- target-system: HIV-integrase (recombinant integrase) (Human immunodeficiency virus type 1 group M subtype B, UniProt P12497)
- Construct: Recombinant integrase (0.26 ng) was incubated with the beads
- assay-notes: HIV-Integrase Inhibition Activity (SPA bead strand-transfer assay)
- conditions-used: recombinant integrase on biotin labeled substrate DNA/SPA beads, P33 labeled target DNA; read-out: Activity (IC50 against HIV-integrase)
observable: IC50

Request: Return value of IC50 for input Cn1c(N2CCCCC2CO)nc(C(=O)NCc2ccc(F)cc2)c(O)c1=O (centres unmarked) [Compound 96] , no commentary.
Response: 0.1 to 1 µM

Request: Return value of IC50 for input Cc1ncnn1-c1nc(C(=O)NCc2ccc(Cl)c(Cl)c2)c(O)c(=O)n1C [Compound 62] , no commentary.
Response: 0.003 to 0.1 µM

Request: Return value of IC50 for input Cc1ccc(CNC(=O)c2nc(N3CCCCS3(=O)=O)n(C)c(=O)c2O)cc1C [Compound 19] , no commentary.
Response: 0.003 to 0.1 µM

Request: Return value of IC50 for input COc1ccc(CCNC(=O)c2nc(N3CCCCS3(=O)=O)n(C)c(=O)c2O)cc1 [Compound 27] , no commentary.
Response: ≥ 1 µM

Request: Return value of IC50 for input Cn1c(N2CCCCS2(=O)=O)nc(C(=O)NCCc2ccccc2)c(O)c1=O [Compound 31] , no commentary.
Response: ≥ 1 µM

Request: Return value of IC50 for input Cc1cc(CNC(=O)c2nc(N3CCN(CCO)CC3)n(C)c(=O)c2O)ccc1F [Compound 68] , no commentary.
Response: 0.003 to 0.1 µM

Request: Return value of IC50 for input COc1ccc(CNC(=O)c2nc(N3CCCCS3(=O)=O)n(C)c(=O)c2O)c(OC)c1 [Compound 22] , no commentary.
Response: 0.003 to 0.1 µM

Request: Return value of IC50 for input Cn1c(N2CCN(c3ncccn3)CC2)nc(C(=O)NCc2ccc(F)cc2)c(O)c1=O [Compound 77] , no commentary.
Response: 0.003 to 0.1 µM

Request: Return value of IC50 for input COc1cccc(CNC(=O)c2nc(N3CCCCS3(=O)=O)n(C)c(=O)c2O)c1 [Compound 11] , no commentary.
Response: 0.1 to 1 µM

Request: Return value of IC50 for input COc1cccc(CCNC(=O)c2nc(N3CCCCS3(=O)=O)n(C)c(=O)c2O)c1 [Compound 39] , no commentary.
Response: ≥ 1 µM

Request: Return value of IC50 for input Cn1c(N2CCCCS2(=O)=O)nc(C(=O)NCc2ccc(Cl)c(Cl)c2)c(O)c1=O [Compound 2] , no commentary.
Response: 0.003 to 0.1 µM

Request: Return value of IC50 for input Cc1ccc(CNC(=O)c2nc(N3CCCCS3(=O)=O)n(C)c(=O)c2O)cc1 [Compound 8] , no commentary.
Response: 0.003 to 0.1 µM

Request: Return value of IC50 for input COc1ccccc1CNC(=O)c1nc(N2CCCCS2(=O)=O)n(C)c(=O)c1O [Compound 24] , no commentary.
Response: 0.003 to 0.1 µM

Request: Return value of IC50 for input Cc1ncnn1-c1nc(C(=O)NCc2ccc(F)cc2)c(O)c(=O)n1C [Compound 61] , no commentary.
Response: 0.1 to 1 µM
